# Experimental Protocol: BET inhibitor-based combinations targeting novel dependencies in MECOM-rearranged (r) AML: SET-2 cell line (AID 2202231); further: nearly all actives have a fitted effect of over 35% in size;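 on viability: plate controls were DMSO treated cells for no effect and wells without cells for full effect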
# Assay Setup: SET-2 AML cells viability, CellTiter-Glo luminescence, 48 h; stronger effect = lower value, concentration not given here
Inconclusive results are not listed. Active and inactive are the calls of the source. The call rests on the fitted dose curve; in most records, active means well fitted inhibition curve with a large enough effect; inconclusive means small, poorly fitted or top-dose-only effect; inactive means no such curve, though single readings can be large or run the other way.
Attribute Measured: viability

Input `Cc1cnc(C(=O)NCCc2ccc(S(=O)(=O)NC(=O)NC3CCCCC3)cc2)cn1` . Output viability: 105% (inactive)

viability measured on `CN1C(=O)N[C@@H](Cc2c[nH]c3c(Cl)cccc23)C1=O` = 110% (inactive)

Just so you know, measured viability for `CC[N+](CC)(CC)CCOc1cccc(OCC[N+](CC)(CC)CC)c1OCC[N+](CC)(CC)CC` came out at 113% (inactive)

Entry under test: `O=S(=O)(O)c1ccc2cc(N=Nc3cc(S(=O)(=O)O)c4cccnc4c3O)ccc2c1` . Its viability was 95.4% (inactive)

`COc1nc(C)cnc1NS(=O)(=O)c1cccnc1-c1ccc(-c2nnco2)cc1` has a reported viability of 115% (inactive)

Lab note: `NC[C@H]1O[C@H](O[C@@H]2[C@@H](O)[C@@H](O[C@H]3O[C@H](CO)[C@@H](O)[C@H](N)[C@@H]3O)[C@H](N)C[C@@H]2N)[C@H](O)[C@@H](O)[C@H]1O` gave viability of 111% (inactive)

Input `Clc1ccc2nsnc2c1NC1=NCCN1` . Output viability: 111% (inactive)

The compound identified as Cc1ccccc1N1C(=O)c2cc(S(N)(=O)=O)c(Cl)cc2NC1C (stereo not given) registered its viability at 115% (inactive)

Lab note: measured viability of `COC(c1ccccc1)(c1ccccc1)[C@H](Oc1nc(C)cc(C)n1)C(=O)O` was 106% (inactive)

Record `NC(=O)c1ccc(-c2nc(-c3ccc4c(c3)OCCO4)c(-c3ccccn3)[nH]2)cc1` . Reported viability: 104% (inactive)

====

Please go through the items and note down their activation.
# Tgt: Cellular tumor antigen p53 (Homo sapiens)
# Experimental Protocol: Primary qHTS for small molecule compounds that upregulate eGFP-tagged delta133p53alpha (in N-terminal) cells. (AID 2060322);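 further: cells pre-induced with doxycycline then dosed without doxycycline; 0% = DMSO vehicle and 100% = reference activator; nearly all actives have a fitted effect of over 75% in size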
# Assay Setup: NCI-H358 eGFP-delta133p53alpha fluorescence, 24 h; stronger effect = higher value
Results filed as inconclusive are left out. The source made the active and inactive calls. Calls follow the shape of the dose curve; as a rule, active = well fitted activation curve with a large enough effect; inconclusive = small, poorly fitted or top-dose-only effect; inactive = no such curve, though single readings can be large or run the other way.

Let me check: `O=c1[nH]c2cc(C(F)(F)F)ccc2n1-c1cc(C(F)(F)F)ccc1O` , system Cellular tumor antigen p53 (Homo sapiens), measured activation is -56.6% (inactive)

Considering `COc1cc(OC)c(/C=C/S(=O)(=O)Cc2ccc(OC)c(NCC(=O)O)c2)c(OC)c1` , its activation with Cellular tumor antigen p53 (Homo sapiens) was recorded as 17.9% (inactive)

Measured activation (Cellular tumor antigen p53 (Homo sapiens)), entry `O=C(O)CC[C@@H](C(=O)O)N1C(=O)c2ccccc2C1=O` : -14.6% (inactive)

Item: `[N-]=[N+]=N[C@]1(CO)O[C@@H](n2ccc(=O)[nH]c2=O)[C@@H](O)[C@@H]1O` | System: Cellular tumor antigen p53 (Homo sapiens) | activation: 7% (inactive)

Here `CN(C)CCc1c[nH]c2ccc(CS(=O)(=O)N3CCCC3)cc12` was tested on Cellular tumor antigen p53 (Homo sapiens), and its activation came to -5.58% (inactive)

Item `CC(=O)O[C@@H]1[C@@H](O)[C@H](O[C@H]2CC[C@]34C[C@]35CC[C@]3(C)[C@@H]([C@@]6(C)CC[C@@H](C(C)(C)O)O6)[C@@H](O)C[C@@]3(C)[C@@H]5C[C@H](O[C@@H]3O[C@H](CO)[C@@H](O)[C@H](O)[C@H]3O)[C@H]4C2(C)C)OC[C@H]1O` was tested on Cellular tumor antigen p53 (Homo sapiens); the reported activation is 15% (inactive)

Entry `C=C1C(=O)O[C@@H]2CC(C)=C([C@@H](C)CCCOC(C)=O)[C@@H](O)[C@H]12` ; assay system Cellular tumor antigen p53 (Homo sapiens); activation recorded at 28.6% (inactive)

Cellular tumor antigen p53 (Homo sapiens) data for `O=c1[nH]c(=O)c2ccccc2o1` ; its activation: -12.6% (inactive)

====

# Experimental Protocol: BET inhibitor-based combinations targeting novel dependencies in MECOM-rearranged (r) AML: SET-2 cell line (AID 2202231); further: nearly all actives have a fitted effect of over 35% in size; further: potency means the concentration at half of the fitted maximal effect;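 on viability: plate controls were DMSO treated cells for no effect and wells without cells for full effect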
# Assay Setup: SET-2 AML cells viability, CellTiter-Glo luminescence, 48 h
Results filed as inconclusive are left out. Active and inactive are the calls of the source. The call rests on the fitted dose curve; in most records, active means well fitted inhibition curve with a large enough effect; inconclusive means small, poorly fitted or top-dose-only effect; inactive means no such curve, though single readings can be large or run the other way. Non-standard residues stand in square brackets, D forms with d. Residues, ends and D or L forms follow the SMILES beside them. *: point of attachment. Nva = CCC[C@H](N)C(=O)O; Cbz = O=C(OCc1ccccc1)*
Attribute Measured: Potency

The value of Potency measured for the molecule `NCc1ccc(OCCCc2sc(-c3ccc4c(c3)/C(=N/Nc3nc5ccccc5s3)CCC4)nc2C(=O)O)cc1` turned out to be 0.332 µM (active)

Data point: `COc1cc(CNC(=O)CCCC/C=C/C(C)C)ccc1O` ; Potency = 14.8 µM (active)

Short answer for `Cc1nc(N)sc1-c1ccnc(Nc2ccc(N3CCOCC3)cc2)n1` : Potency was 5.25 µM (active)

Sure, the documented Potency for `O=C(/C=C/C#Cc1cccc(NS(=O)(=O)c2ccccc2)c1)NO` is 0.407 µM (active)

Memo: `O=c1c(-c2ccc(O)cc2)coc2cc(O)cc(O)c12` , reported Potency: 42.8 µM (active)

// recorded Potency for `COc1cc(Nc2c(C#N)cnc3cc(OCCCN4CCN(C)CC4)c(OC)cc23)c(Cl)cc1Cl` : 16.6 µM (active)

The molecule `CCOc1cc(C(=O)Nc2ccc(Cl)c(-c3nc4ccccc4[nH]3)c2)cc(OCC)c1OCC` showed Potency equal to 18.6 µM (active)

Consider `Cn1cc(-c2[nH]c3cc(NC(=O)[C@H](N)C4CCCCC4)cc4c3c2C=NNC4=O)cn1` . Its measured Potency is 16.6 µM (active)

Summary for this molecule, `COc1cc([C@@H]2c3cc4c(cc3[C@H](O)[C@H]3COC(=O)[C@@H]23)OCO4)cc(OC)c1OC` : Potency is 1.18 µM (active)

molecule `Cc1c(C(=O)N2CCOc3ccc(-c4ccc(N)nc4)cc3C2)ccc(S(C)(=O)=O)c1F` , Potency observed: 13.2 µM (active)

Entry `CC(C)C[C@H](NC(=O)[C@H](CCc1ccccc1)NC(=O)CN1CCOCC1)C(=O)N[C@@H](Cc1ccccc1)C(=O)N[C@@H](CC(C)C)C(=O)[C@@]1(C)CO1` ; Potency = 0.0833 µM (active)

Lookup result for `COc1cc(N2CCC(N(C)C)CC2)ccc1Nc1ncc(Cl)c(Nc2ccccc2P(C)(C)=O)n1` ; measured Potency: 6.61 µM (active)

Record `CNC(=O)c1ccccc1Nc1nc(Nc2ccc3c(c2OC)CCC[C@@H](N2CCN(CCO)CC2)C3)ncc1Cl` , field Potency: 18.6 µM (active)

So for `CS(=O)(=O)c1cccc(CNc2nc(Nc3ccc4c(c3)CCC(=O)N4)ncc2C(F)(F)F)c1` , the logged Potency turned out to be 16.6 µM (active)

The value of Potency measured for the molecule `Cc1cc(Nc2cc(NC(=O)c3c(Cl)cccc3Cl)ccn2)nc(N)n1` turned out to be 3.32 µM (active)

Potency recorded for this molecule, `CN1CCN(c2ncc(-c3cc(Cl)cc(Cl)c3Cl)c(N)n2)CC1` , is 23.5 µM (active)

The reported value for CCC[C@@H](C=O)NC(=O)[C@H](CC(C)C)NC(=O)[C@H](CC(C)C)NC(=O)OCc1ccccc1 (Cbz-Leu-Leu-[Nva]-aldehyde) in terms of Potency is 2.09 µM (active)

The value of Potency measured for the molecule `O=C(Cc1ccc(-c2ccc(OCCN3CCOCC3)cc2)cn1)NCc1ccccc1` turned out to be 0.166 µM (active)

For `C=CC(=O)Nc1cccc(Nc2nc(Nc3ccc(OCCOC)cc3)ncc2F)c1` the molecule record lists Potency as 16.6 µM (active)

Potency reading for `Clc1ccc(Cn2c(CN3CCCC3)nc3ccccc32)cc1` : 20.9 µM (active)

What the record says about `C=CCn1c(=O)c2cnc(Nc3ccc(N4CCN(C)CC4)cc3)nc2n1-c1cccc(C(C)(C)O)n1` : Potency is 1.32 µM (active)

Value of Potency reported for the molecule `CN1CCN(c2cc(C(=O)Nc3ccc4c(c3)-c3c(c(C(N)=O)nn3-c3ccc(F)cc3)CC4)c(Cl)cn2)CC1` is 8.33 µM (active)

Value of measured Potency for the entry `CC(C)c1c(C(=O)Nc2ccccc2)c(-c2ccccc2)c(-c2ccc(F)cc2)n1CC[C@@H](O)C[C@@H](O)CC(=O)O` : 7.23 µM (active)

Please fill in: Potency reported for `O=C(Nc1ccc2[nH]nc(-c3ccncc3)c2c1)[C@@H]1CCN(CC(=O)N2CCN(c3ccc(-c4ncccn4)cc3)CC2)C1` = 23.5 µM (active)

The recorded Potency for `NC(N)=NC(N)=NCCc1ccccc1` is 13.2 µM (active)

Given item `O=c1ncn2nc(Sc3ccc(F)cc3F)ccc2c1-c1c(Cl)cccc1Cl` , the value recorded as its Potency is 20.9 µM (active)

For `CCNC(=O)c1cc2c(-c3cc(OCCN4CCCC4)c(Cl)cc3Cl)nc(N)nc2s1` the molecule record lists Potency as 2.88 µM (active)

Note to self: Potency recorded for `NC(=NCCCCCCN=C(N)N=C(N)Nc1ccc(Cl)cc1)N=C(N)Nc1ccc(Cl)cc1` was 26.3 µM (active)

Value of measured Potency for the entry `NC(=O)c1cccc2[nH]c(-c3ccc([C@H]4CCCN4)cc3F)nc12` : 20.9 µM (active)

What the record says about `CN1CCN(Cc2ccc(NC(=O)Nc3ccc(Oc4cc(NC(=O)C5CC5)ncn4)cc3)cc2C(F)(F)F)CC1` : Potency is 0.742 µM (active)

Noted for `COc1cc(C(=O)NC2CCN(C)CC2)c(F)cc1Nc1ncc2c(n1)N(C1CCCC1)CC(F)(F)C(=O)N2C` : its Potency reads 0.0934 µM (active)

Per the records, this molecule ( COc1ccccc1N1CCN(CC(O)COc2cccc3ccccc23)CC1 (stereo unspecified) ) has Potency equal to 13.2 µM (active)

Query `CCCOc1ccc(CCc2nc3cc(-c4c(C)noc4C)ccc3n2CCN2CCOCC2)cc1` yields Potency of 20.9 µM (active)

The molecule CCCCCNC(=O)N1CCC(CN(Cc2ccc(Cl)cc2)Cc2ccc([N+](=O)[O-])s2)C1 (stereo unspecified) showed Potency equal to 20.9 µM (active)

Form field Potency, entry `CC1(C)CCC(c2ccc(Cl)cc2)=C(CN2CCN(c3ccc(C(=O)NS(=O)(=O)c4ccc(N[C@H](CCN5CCOCC5)CSc5ccccc5)c(S(=O)(=O)C(F)(F)F)c4)cc3)CC2)C1` : 1.32 µM (active)

Form: molecule = `CCc1c2c(nc3ccc(O)cc13)-c1cc3c(c(=O)n1C2)COC(=O)[C@]3(O)CC` ; Potency = 0.0166 µM (active)
